Structures can show the parent of a compound that is named as a salt.

MOLECULE	melting point
Cc1ccccc1-c1cccc(NC(=N)N)n1 (as salt: trifluoroacetate) [Compound 1l]	168 to 169 °C
N=C(N)Nc1cccc(-c2cc3ccccc3o2)n1.O=C(O)C(F)(F)F [Compound 1h]	269 to 270 °C
N=C(N)Nc1cccc(-c2ccccc2F)n1 (as salt: trifluoroacetate) [Compound 1j]	199 to 200 °C
c1ccc(NC2=Nc3cccc(-c4ccccc4)c3CN2)cc1 [Compound 60b]	77 to 82 °C

###

biological target: human synthetic MSK1 (14-438-K, Millipore) (Homo sapiens, UniProt O75582); construct: purchased Millipore 14-438-K; assay: MSK1 enzymatic inhibition assay (Kinase-Glo luminescence); assay type: biochemical; conditions: compound at 10 µM; ± Standard Deviation (n = 4); read-out: MSK1 % Inhibition 10 µM
Sequence (O75582 whole entry): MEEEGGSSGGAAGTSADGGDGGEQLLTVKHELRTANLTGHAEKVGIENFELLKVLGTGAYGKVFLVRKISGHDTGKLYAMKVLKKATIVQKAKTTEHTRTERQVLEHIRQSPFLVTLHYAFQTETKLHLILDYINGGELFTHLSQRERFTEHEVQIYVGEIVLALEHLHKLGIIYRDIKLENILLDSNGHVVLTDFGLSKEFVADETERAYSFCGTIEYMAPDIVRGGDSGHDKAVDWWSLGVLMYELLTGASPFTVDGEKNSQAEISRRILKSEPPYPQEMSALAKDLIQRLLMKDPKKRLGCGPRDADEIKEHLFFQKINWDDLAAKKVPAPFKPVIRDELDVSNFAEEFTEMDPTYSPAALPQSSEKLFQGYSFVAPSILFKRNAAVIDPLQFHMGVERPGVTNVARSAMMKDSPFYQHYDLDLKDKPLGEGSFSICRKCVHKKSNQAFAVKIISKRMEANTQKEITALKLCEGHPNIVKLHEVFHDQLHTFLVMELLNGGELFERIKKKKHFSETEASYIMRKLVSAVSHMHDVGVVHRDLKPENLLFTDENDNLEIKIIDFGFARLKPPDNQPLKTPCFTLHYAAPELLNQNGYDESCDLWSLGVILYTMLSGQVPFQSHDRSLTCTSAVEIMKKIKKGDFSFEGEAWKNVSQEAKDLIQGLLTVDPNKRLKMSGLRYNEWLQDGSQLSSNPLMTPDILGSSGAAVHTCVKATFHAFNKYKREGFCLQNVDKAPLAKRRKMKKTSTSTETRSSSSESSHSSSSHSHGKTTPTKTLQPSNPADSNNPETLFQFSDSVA
In this section, each of the compounds is paired with its reported inhibition at 10 µM.

COMPOUND	UNIT DESCRIPTOR	inhibition at 10 µM
N=C(N)Nc1ccc(CCc2ccccc2)cn1 [Compound 25]	%	6
Br.COc1ccccc1-c1cccc2c1CNC(N)=N2 [Compound 37g]	%	-5
Nc1nc2c(-c3ccccc3)cccc2[nH]1 [Compound 49a]	%	46
